Assay: IN Cell qHTS Assay for Inhibitors of the mTORC1 Signaling Pathway in MEF (Tsc2-/-, p53-/-) Cells: Sytravon; note: nearly all actives have a fitted effect of over 60% in size
Details: phospho-rpS6 immunofluorescence, 24 h; series mostly up to 38.3 µM
The campaign covered roughly 2,100 compounds. About 210 (10%) were called active. Not shown: some 53% with an inconclusive outcome. Calls come from the whole dose curve; as a rule, active = well fitted inhibition curve with a large enough effect; inconclusive = small, poorly fitted or top-dose-only effect, or effect the other way; inactive = no such curve, though single readings can be large or run the other way. The list shows a part of the results.
Assign a class; possible classes are Y = active, N = inactive

Illustrative cases are given below, each with its answer.
- Molecule: "CCC1CN(C(=O)NCc2cccc(OC)c2)c2cc(Cl)ccc2O1 (centres undefined)"
  Qualitative label: "N"
- Molecule: "CC(C)(C)c1ccc(NC(=O)CSc2nnc3scc(-c4ccccc4)n23)cc1"
  Qualitative label: "N"
- Molecule: "O=C(NCCc1ccccc1)c1ccc(Cn2c(SCc3ccccc3)nc3cccnc32)cc1"
  Qualitative label: "N"
- Molecule: "COc1cccc(-n2c(SCC(=O)Nc3c(C)cc(C)cc3C)nc3c([nH]c4ccccc43)c2=O)c1"
  Qualitative label: "N"
- Molecule: "COc1cccc(-n2c(SCc3cccc(C)c3)nc3c([nH]c4ccccc43)c2=O)c1"
  Qualitative label: "N"

// query What was the test verdict on COc1ccc(-c2nnc(SCc3cc(=O)c4cc(C)cc(C)c4[nH]3)n2C)cc1 ?
// result Y

// query Next record, please: Cc1ccccc1NC(=O)Cn1c(=O)n(-c2ccc(CC(=O)NCC3CCCO3)cc2)c(=O)c2ccccc21 (centres undefined)
// result N

// query Next record, please: O=C(NCc1ccco1)C1CCN(C(=O)N2CCOc3ccc(Cl)cc32)CC1
// result N

// query Next record, please: Cc1cccc(NC(=O)CSc2nc3ccccc3c3nc(CCn4cncc4C)nn23)c1
// result N

----------
Assay: IN Cell qHTS Assay for Inhibitors of the mTORC1 Signaling Pathway in MEF (Tsc2-/-, p53-/-) Cells: Sytravon; note: nearly all actives have a fitted effect of over 60% in size
Conditions: phospho-rpS6 immunofluorescence, 24 h; series mostly up to 38.3 µM
Hit rate of the full screen: of about 2,100 compounds, about 210 (10%) were called active. Not shown: some 53% with an inconclusive outcome. Calls come from the whole dose curve; as a rule, active = well fitted inhibition curve with a large enough effect; inconclusive = small, poorly fitted or top-dose-only effect, or effect the other way; inactive = no such curve, though single readings can be large or run the other way. This is one part of the list.
Assign a class; possible classes are 1 for active, 0 for inactive

// query What was the test verdict on CCOc1ccc(Nc2nc(N)c(C(=O)c3ccccc3Cl)s2)cc1 ?
// result 0

// query Next record, please: O=C(Nc1cc(Cl)cc(Cl)c1)c1ccc(F)c(S(=O)(=O)NC2CCCCC2)c1
// result 0

// query Next record, please: Cc1cccc(NC(c2ccccc2C)c2ccc3ccc(C)nc3c2O)n1 (stereo not given)
// result 0

// query Next record, please: CCOc1ccc(Nc2nc(-c3cccc(Cl)c3)c3c(n2)-c2ccccc2OC3)cc1
// result 1

// query Next record, please: Cc1nn(-c2ccc(N3CCOCC3)nn2)c(C)c1CCC(=O)NCc1ccccc1F
// result 0

----------
Assay: IN Cell qHTS Assay for Inhibitors of the mTORC1 Signaling Pathway in MEF (Tsc2-/-, p53-/-) Cells: Sytravon; note: nearly all actives have a fitted effect of over 60% in size
Details: phospho-rpS6 immunofluorescence, 24 h; series mostly up to 38.3 µM
Out of some 2,100 compounds screened, about 210 (10%) were called active. Not shown: some 53% with an inconclusive outcome. Calls follow the shape of the dose curve; as a rule, active = well fitted inhibition curve with a large enough effect; inconclusive = small, poorly fitted or top-dose-only effect, or effect the other way; inactive = no such curve, though single readings can be large or run the other way. The list shows a part of the results.
Assign a class; possible classes are Y for active, N for inactive

Illustrative cases are given below, each with its answer.
- Compound: "COc1ccccc1Nc1cc(C(=O)NCCCN(C)C2CCCCC2)c2ccccc2n1"
  Qualitative label: "Y"
- Compound: "CC1CCCN(CCCNC(=O)c2cc(Sc3ccc(F)cc3)nc3ccccc23)C1 (stereo not given)"
  Qualitative label: "N"
- Compound: "CC(C)S(=O)(=O)c1oc(-c2ccc(F)cc2)nc1S(=O)(=O)c1ccc(F)cc1"
  Qualitative label: "Y"
- Compound: "CSc1cccc(Nc2cc(C(=O)NCCCN(Cc3ccccc3)C(C)C)c3ccccc3n2)c1"
  Qualitative label: "N"

In the following, a different compound is considered.
// query What was the test verdict on CC(C)S(=O)(=O)c1oc(-c2cccs2)nc1S(=O)(=O)c1ccc(F)cc1 ?
// result Y
